This listing pairs molecules with measured relative IC50.
Tested on: KAI3 (IL-2 2.5 ng/mL)
Procedure details: relative IC50 (inflection point of fitted viability curve, relative to fitted max inhibition); higher = less sensitive
Assay conditions: 72 h

# Molecule, Test target, relative IC50 / µM
measured = [
    ("CNC(=O)c1cccc(-c2ccc3c(N4CCOC[C@@H]4C)nc(N4CCOC[C@@H]4C)nc3n2)c1 [AZD2014]", "KAI3 (IL-2 2.5 ng/mL)", 0.0248),
    ("COc1cc(OC2CCN(C)CC2)ccc1Nc1ncc2c(n1)n(C1CCCC1)c(=O)n2C [AZ 3146]", "KAI3 (IL-2 2.5 ng/mL)", 1.58),
    ("CC[C@@H]1C(=O)N(C)c2cnc(Nc3ccc(C(=O)NC4CCN(C)CC4)cc3OC)nc2N1C1CCCC1 [BI 2536]", "KAI3 (IL-2 2.5 ng/mL)", 0.00837),
    ("C=CCc1cccc(/C=N/NC(=O)CN2CCN(Cc3ccccc3)CC2)c1O [PAC-1]", "KAI3 (IL-2 2.5 ng/mL)", 0.679),
    ("COCC[n+]1c2c(n(Cc3cnccn3)c1C)C(=O)c1ccccc1C2=O [YM155]", "KAI3 (IL-2 2.5 ng/mL)", 0.01),
]

----------
Test system: NK-92 (IL-2 2.5 ng/mL)
Procedure details: percent inhibition of viability; higher = more inhibition
Assay conditions: 72 h; 10000 nM
Doc: threshold 80% (exclusive). Items with percent inhibition of viability beneath it return 1.0; others return 0.0.

# Compound, Test target, Label
data = [
    ("COc1ccc(C2=N[C@@H](c3ccc(Cl)cc3)[C@@H](c3ccc(Cl)cc3)N2C(=O)N2CCNC(=O)C2)c(OC(C)C)c1 [Nutlin-3] (max concentration tested 10000 nM)", "NK-92 (IL-2 2.5 ng/mL)", 1.0),
    ("CCn1c(=O)c(-c2cc[nH]n2)cc2c(C)nc(N)nc21 [Voxtalisib] (max concentration tested 10000 nM)", "NK-92 (IL-2 2.5 ng/mL)", 0.0),
    ("CNC(=O)c1cc(COc2nnc(Nc3ccc(Cl)cc3)c3ccoc23)ccn1 [Telatinib] (max concentration tested 10000 nM)", "NK-92 (IL-2 2.5 ng/mL)", 1.0),
    ("COC1=CC(c2cc3ccccc3[nH]2)=N/C1=C\\c1[nH]c(C)cc1C [Obatoclax] (max concentration tested 10000 nM)", "NK-92 (IL-2 2.5 ng/mL)", 1.0),
    ("CC(C)(C)c1cnc(CSc2cnc(NC(=O)C3CCNCC3)s2)o1 [SNS-032] (max concentration tested 10000 nM)", "NK-92 (IL-2 2.5 ng/mL)", 0.0),
    ("Cc1cc(C)c(/C=C2\\C(=O)Nc3ccccc32)[nH]1 [Semaxanib] (max concentration tested 10000 nM)", "NK-92 (IL-2 2.5 ng/mL)", 1.0),
]

----------
System: IMC-1 (IL-2 20 ng/mL)
Procedure details: percent inhibition of viability; higher = more inhibition
Assay conditions: 72 h; 10000 nM

# Molecule, U, percent inhibition of viability
records = [
    ("Nc1nccc(-c2c(-c3ccc(F)cc3)ncn2C2CCCCC2)n1 (max concentration tested 10000 nM)", "%", 3.74),
    ("O=C(Cc1ccc(-c2ccc(OCCN3CCOCC3)cc2)cn1)NCc1ccccc1 [KX2-391] (max concentration tested 10000 nM)", "%", 100),
    ("CS(=O)(=O)c1ccc(C(=O)Nc2ccc(Cl)c(-c3ccccn3)c2)c(Cl)c1 [Vismodegib] (max concentration tested 10000 nM)", "%", 8.93),
]
